- Tested on: cancer cell lines with wild-type p53 / mutated or deleted p53 (ATCC)
- assay_remarks: Cell growth assay (WST-8), other cancer cell lines
- Type: cell-based
- conditions_used: Homo sapiens, PC-3, Table 19A; PC-3 cells, deleted p53, cell growth; read-out: PC-3 (deleted p53) IC50
endpoint_name: IC50 (µM)
// return numeric value only (unit: µM, not printed)

Consider the following illustrative entries.
compound: CC(C)(C)C[C@H]1N[C@@H](C(=O)NC2CCC(OC(=O)[C@@H](N)Cc3ccccc3)CC2)[C@H](c2cccc(Cl)c2F)[C@@]12C(=O)Nc1cc(Cl)ccc12 (stereo partly drawn) [MI-910]
endpoint_name: IC50
unit_of_measure: µM
test_result: 7

compound: CN(C)CC(=O)N1CCN(C(=O)[C@@H]2N[C@H](CC(C)(C)C)[C@]3(C(=O)Nc4cc(Cl)c(F)cc43)[C@H]2c2cccc(Cl)c2)CC1 [MI-744]
endpoint_name: IC50
unit_of_measure: µM
test_result: 7.7

compound: CC(C)(C)C[C@H]1N[C@@H](C(=O)NCC[C@H](O)CN2CCCC2)[C@H](c2cccc(Cl)c2)[C@@]12C(=O)Nc1cc(Cl)c(F)cc12 [MI-519-28]
endpoint_name: IC50
unit_of_measure: µM
test_result: 4.1

compound: CC(C)(C)C[C@H]1N[C@@H](C(=O)NC2CCN(S(C)(=O)=O)CC2)[C@H](c2cccc(Cl)c2F)[C@@]12C(=O)Nc1cc(Cl)ccc12 [MI-779]
endpoint_name: IC50
unit_of_measure: µM
test_result: 11.6

compound: CC(C)(C)C[C@H]1N[C@@H](C(=O)NCCCN2CCCC2)[C@H](c2cccc(Cl)c2F)[C@@]12C(=O)Nc1cc(Cl)c(F)cc12 [MI-764]
endpoint_name: IC50
unit_of_measure: µM
test_result: 2.4

compound: CC(C)(C)C[C@H]1N[C@@H](C(=O)NCCN2CC[C@H](O)C2)[C@H](c2cccc(Cl)c2)[C@@]12C(=O)Nc1cc(Cl)c(F)cc12 [MI-519-35]
endpoint_name: IC50
unit_of_measure: µM
test_result: 6.7

Moving on to another compound below.
QUERY: Provide the documented IC50 with cancer cell lines with wild-type p53 / mutated or deleted p53 (ATCC) as the system for CC(C)(C)C[C@H]1N[C@@H](C(=O)NCCCN2CCCC2)[C@H](c2cccc(Cl)c2)[C@@]12C(=O)Nc1cc(Cl)c(F)cc12 [MI-519-38]
RESULT: 3.1

====

- assay_remarks: In vitro microsomal stability, rat
- Assay type: in vitro ADME
- conditions_used: rat liver microsomes, NADPH, 5 min
Classify: Condition met when % of compound remaining when incubated in rat liver microsomes with NADPH is strictly less than 90%; Condition not met when % of compound remaining when incubated in rat liver microsomes with NADPH is not.

Solved entries (count: 2):
molecule: CC(C)(C)C[C@H]1N[C@@H](C(=O)NC2CCC(NS(C)(=O)=O)CC2)[C@H](c2cccc(Cl)c2F)[C@@]12C(=O)Nc1cc(Cl)ccc12 (stereo partly shown) [MI-771]
cat: Condition met

molecule: CC(C)(C)C[C@H]1N[C@@H](C(=O)NC2CCC(NS(C)(=O)=O)CC2)[C@H](c2cccc(Cl)c2F)[C@@]12C(=O)Nc1cc(Cl)ccc12 (stereo partly shown) [MI-772]
cat: Condition not met

QUERY: In plain terms, does CC(C)(C)C[C@H]1N[C@@H](C(=O)NCC[C@H](O)CNC(C)(C)C)[C@H](c2cccc(Cl)c2)[C@@]12C(=O)Nc1cc(Cl)c(F)cc12 [MI-519-24] come in under 90% for % of compound remaining when incubated in rat liver microsomes with NADPH?
RESULT: Condition not met

QUERY: In plain terms, does CC(C)(C)C[C@H]1N[C@@H](C(=O)NCC[C@H](O)CN2CC[C@@H](O)C2)[C@H](c2cccc(Cl)c2)[C@@]12C(=O)Nc1cc(Cl)c(F)cc12 [MI-519-29] come in under 90% for % of compound remaining when incubated in rat liver microsomes with NADPH?
RESULT: Condition not met

QUERY: In plain terms, does CC(C)(C)C[C@H]1N[C@@H](C(=O)N[C@H]2CC[C@@H](O)C2)[C@H](c2cccc(Cl)c2)[C@@]12C(=O)Nc1cc(Cl)c(F)cc12 [MI-519-27] come in under 90% for % of compound remaining when incubated in rat liver microsomes with NADPH?
RESULT: Condition met

QUERY: In plain terms, does CC(O)C(O)CCNC(=O)[C@@H]1N[C@H](CC(C)(C)C)[C@]2(C(=O)Nc3cc(Cl)c(F)cc32)[C@H]1c1cccc(Cl)c1 (stereo partly shown) [MI-519-31] come in under 90% for % of compound remaining when incubated in rat liver microsomes with NADPH?
RESULT: Condition met
